biological target: ALK (Homo sapiens, UniProt Q9UM73); construct: host or cells: baculovirus expression system; test: ALK Kinase Assay (ELISA/TRF, PLC-γ substrate); format: biochemical; details: ALK Kinase Inhibition; read-out: ALK Potency
Sequence (Q9UM73 19-1620): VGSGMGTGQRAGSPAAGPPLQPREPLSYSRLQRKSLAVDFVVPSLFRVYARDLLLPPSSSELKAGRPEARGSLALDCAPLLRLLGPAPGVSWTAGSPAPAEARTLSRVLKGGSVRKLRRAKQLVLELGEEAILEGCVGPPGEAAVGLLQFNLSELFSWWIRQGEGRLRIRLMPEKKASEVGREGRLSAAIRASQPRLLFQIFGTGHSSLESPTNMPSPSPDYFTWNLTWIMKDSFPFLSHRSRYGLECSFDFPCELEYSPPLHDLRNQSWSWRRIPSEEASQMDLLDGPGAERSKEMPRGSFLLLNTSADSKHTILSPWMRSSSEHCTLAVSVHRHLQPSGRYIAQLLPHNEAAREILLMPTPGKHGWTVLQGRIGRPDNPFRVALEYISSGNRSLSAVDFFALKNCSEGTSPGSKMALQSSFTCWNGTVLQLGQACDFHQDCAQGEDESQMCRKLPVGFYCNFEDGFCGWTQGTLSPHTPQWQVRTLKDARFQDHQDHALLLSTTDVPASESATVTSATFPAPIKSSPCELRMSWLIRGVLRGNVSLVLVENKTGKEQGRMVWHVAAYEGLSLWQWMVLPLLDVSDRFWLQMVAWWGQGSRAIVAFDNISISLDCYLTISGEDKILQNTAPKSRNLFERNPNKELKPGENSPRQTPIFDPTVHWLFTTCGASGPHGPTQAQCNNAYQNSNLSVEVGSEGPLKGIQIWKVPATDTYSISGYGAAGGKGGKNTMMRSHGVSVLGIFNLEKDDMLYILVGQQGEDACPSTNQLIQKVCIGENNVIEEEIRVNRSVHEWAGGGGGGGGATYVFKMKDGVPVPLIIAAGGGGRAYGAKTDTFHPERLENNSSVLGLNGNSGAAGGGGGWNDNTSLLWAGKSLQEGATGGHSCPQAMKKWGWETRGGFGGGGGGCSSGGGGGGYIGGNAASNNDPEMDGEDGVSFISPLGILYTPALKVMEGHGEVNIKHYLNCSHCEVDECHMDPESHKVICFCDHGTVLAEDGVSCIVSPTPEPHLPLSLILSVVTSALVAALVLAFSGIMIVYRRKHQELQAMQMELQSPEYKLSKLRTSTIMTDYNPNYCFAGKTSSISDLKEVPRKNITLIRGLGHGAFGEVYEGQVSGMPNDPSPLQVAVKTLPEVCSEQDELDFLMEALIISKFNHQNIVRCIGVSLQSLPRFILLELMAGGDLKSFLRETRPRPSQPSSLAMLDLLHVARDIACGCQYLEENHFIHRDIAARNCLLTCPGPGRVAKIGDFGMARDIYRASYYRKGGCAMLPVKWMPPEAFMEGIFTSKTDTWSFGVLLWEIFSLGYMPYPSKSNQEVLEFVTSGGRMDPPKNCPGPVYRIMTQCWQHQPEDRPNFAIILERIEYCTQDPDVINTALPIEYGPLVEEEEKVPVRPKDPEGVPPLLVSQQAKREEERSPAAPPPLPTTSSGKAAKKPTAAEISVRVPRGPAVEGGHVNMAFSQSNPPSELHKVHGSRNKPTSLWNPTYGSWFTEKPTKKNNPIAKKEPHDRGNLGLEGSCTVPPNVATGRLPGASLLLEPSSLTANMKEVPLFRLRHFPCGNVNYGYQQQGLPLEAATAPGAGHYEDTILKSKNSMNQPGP
Catalogue of molecules with associated IC50

{"molecule": "O=C(c1ccccc1)c1ccc2cnc(Nc3ccc(N4CCOCC4)cc3)nn12 [Example 72]", "IC50": "1 to 10 µM"}
{"molecule": "CS(=O)(=O)Nc1cccc(-c2ccc3cnc(Nc4ccc(N5CCN(CCO)CC5)cc4)nn23)c1 [Example 380]", "IC50": "< 0.1 µM"}
{"molecule": "COc1ccc(Nc2ncc3ccc(-c4cccc(S(=O)(=O)NC(C)(C)C)c4)n3n2)cc1N1CCCC1=O [Example 1377]", "IC50": "0.1 to 1 µM"}
{"molecule": "CCN(c1ccccc1-c1ccc2cnc(Nc3ccc(N4CCC(N5CCOCC5)CC4)cc3OC)nn12)S(C)(=O)=O [Example 1460]", "IC50": "< 0.1 µM"}
{"molecule": "CS(=O)(=O)Nc1cccc(-c2ccc3cnc(Nc4ccc5c(c4)CCC(N4CCOCC4)CC5)nn23)c1 (centres unmarked) [Example 382]", "IC50": "0.1 to 1 µM"}
{"molecule": "COc1ccccc1-c1cc(C)c2cnc(Nc3ccc(N4CCN(C)CC4)cc3)nn12 [Example 105]", "IC50": "< 0.1 µM"}
{"molecule": "COc1ccccc1NCc1ccc2cnc(Nc3ccc(N4CCN(C)CC4)cc3)nn12 [Example 365]", "IC50": "1 to 10 µM"}
{"molecule": "CC1(C)C(=O)Nc2cc(Nc3ncc4ccc(-c5ccccn5)n4n3)ccc21 [Example 1563]", "IC50": "0.1 to 1 µM"}

---

Examples of compounds with documented pIC50 follow.
biological target: ALK (Homo sapiens, UniProt Q9UM73); construct: host or cells: baculovirus expression system; assay: ALK Kinase Assay (ELISA/TRF, PLC-γ substrate); assay type: biochemical; conditions: ALK kinase inhibition, 1 μM ATP; read-out: ALK Potency
pIC50: −log10 of the molar value.

{"compound": "CC(O)c1cccc(Nc2ncc3ccc(-c4cccc(S(=O)(=O)NC(C)(C)C)c4)n3n2)c1 (stereo not shown)", "pIC50": "6.00 to 7.00"}
{"compound": "COc1ccccc1-c1ccc2cnc(Nc3ccc4c(c3)OCC(=O)N4C)nn12", "pIC50": "6.00 to 7.00"}
{"compound": "COc1ccc(-c2ccc3cnc(Nc4cccc(NC(=O)CN(C)C)c4)nn23)cn1", "pIC50": "6.00 to 7.00"}
{"compound": "COc1ccccc1-c1ccc2cnc(Nc3ccc4c(c3)N(C)CCC4)nn12", "pIC50": "5.00 to 6.00"}
{"compound": "COc1ccc(CN2CCN(C)CC2)cc1Nc1ncc2ccc(-c3ccccc3OC)n2n1", "pIC50": "5.00 to 6.00"}
{"compound": "CS(=O)(=O)c1ccc(-c2ccc3cnc(Nc4ccc5c(c4)NC(=O)C(NC(=O)C(F)(F)F)CC5)nn23)cc1 (stereo not shown)", "pIC50": "< 5.00"}
{"compound": "COc1cc2c(cc1Nc1ncc3ccc(-c4ccccc4N(C)S(C)(=O)=O)n3n1)CN(CC(N)=O)C2", "pIC50": "> 7.00"}
{"compound": "COc1cc(C2CCN(C[C@@H](O)CO)CC2)c(F)cc1Nc1ncc2ccc(-c3ccccc3N(C)S(C)(=O)=O)n2n1", "pIC50": "> 7.00"}
{"compound": "CN(c1ccccc1-c1ccc2cnc(Nc3ccc(-c4cccnc4)cc3)nn12)S(C)(=O)=O", "pIC50": "6.00 to 7.00"}
{"compound": "CC(C)(C)NS(=O)(=O)c1cccc(-c2ccc3cnc(Nc4ccc5nc(CO)[nH]c5c4)nn23)c1", "pIC50": "5.00 to 6.00"}
{"compound": "COc1cc(N2CCC(N3CCCOCC3)CC2)ccc1Nc1ncc2ccc(-c3ccccc3N(C)S(C)(=O)=O)n2n1", "pIC50": "> 7.00"}
{"compound": "COc1cc(C2CCN(CC(O)CF)CC2)ccc1Nc1ncc2ccc(-c3ccccc3N(C)S(C)(=O)=O)n2n1 (racemic)", "pIC50": "> 7.00"}
{"compound": "CN1CCN(c2ccc(Nc3ncc4ccc(-c5ccccc5OCC#N)n4n3)cc2)CC1", "pIC50": "> 7.00"}
{"compound": "CN(c1ccccc1-c1ccc2cnc(Nc3cncc(C(N)=O)c3)nn12)S(C)(=O)=O", "pIC50": "5.00 to 6.00"}
{"compound": "COc1cc2c(cc1Nc1ncc3ccc(-c4ccccc4N(C)S(C)(=O)=O)n3n1)CN(C(C)C)C2", "pIC50": "> 7.00"}
{"compound": "CC(C)(C)NS(=O)(=O)c1cccc(-c2ccc3cnc(Nc4ccc5c(c4)NC(=O)C5(C)C)nn23)c1", "pIC50": "6.00 to 7.00"}

Data provenance is patent US8471005B2.
